B1: VH:VL chains; a variant is named by its letters at X, in order (parent)
chain 1: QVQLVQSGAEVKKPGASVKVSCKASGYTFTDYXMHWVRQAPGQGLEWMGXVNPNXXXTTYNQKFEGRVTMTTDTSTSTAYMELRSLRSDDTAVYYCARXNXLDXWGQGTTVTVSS
chain 2: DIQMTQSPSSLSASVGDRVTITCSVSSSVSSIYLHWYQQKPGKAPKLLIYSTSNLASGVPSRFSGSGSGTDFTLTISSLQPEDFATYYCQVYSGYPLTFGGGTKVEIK

Variants of: B1
Experiment: yeast display scFab, FACS + sequencing
Conditions: with MET
The other results are listed elsewhere or left out. The hit rate among all sequences tested is not known here.
outcome-measure: antigen binding call

1) SKGRGSAA | binds
2) DGEGGDWD | no binding
3) FKKKDASV | binds
4) VRAGSSWD | binds
5) VAARGDAA | no binding

Query string: For AKTKSDVA , what is its reported antigen binding call?
Result string: no binding

Query string: If you can, please state the reported antigen binding call value of FKTKNYVV .
Result string: no binding
